Recorded IC50 values (MMP-9 (Homo sapiens)) are given below.
Number only, in µM; omit the unit.

Please review the following examples before continuing.
INSERT INTO assay_data (compound, target_entity, property, measured_result) VALUES
  ('O=C(Nc1cc(C(=O)Nc2ccc(S(=O)(=O)O)cc2S(=O)(=O)O)cc(C(=O)Nc2ccc(S(=O)(=O)O)cc2S(=O)(=O)O)c1)Nc1cc(C(=O)Nc2ccc(S(=O)(=O)O)cc2S(=O)(=O)O)cc(C(=O)Nc2ccc(S(=O)(=O)O)cc2S(=O)(=O)O)c1', 'MMP-9 (Homo sapiens)', 'IC50', 8.6),
  ('N.N.[Cl][Pt][Cl] [Cisplatin, cisplatin]', 'MMP-9 (Homo sapiens)', 'IC50', 13.9);

## Task Test system MMP-9 (Homo sapiens); read-out IC50; what value for `Cc1nc(N=Nc2cc(S(=O)(=O)[O-])c3cc([N+](=O)[O-])cc(S(=O)(=O)[O-])c3c2)c(COP(=O)([O-])[O-])c(C=O)c1O.[Na+].[Na+].[Na+].[Na+]` ?
## Result 40

====

# Target Entity: meprin α (Homo sapiens)
# Sequence (Q16819 66-653 limits assumed): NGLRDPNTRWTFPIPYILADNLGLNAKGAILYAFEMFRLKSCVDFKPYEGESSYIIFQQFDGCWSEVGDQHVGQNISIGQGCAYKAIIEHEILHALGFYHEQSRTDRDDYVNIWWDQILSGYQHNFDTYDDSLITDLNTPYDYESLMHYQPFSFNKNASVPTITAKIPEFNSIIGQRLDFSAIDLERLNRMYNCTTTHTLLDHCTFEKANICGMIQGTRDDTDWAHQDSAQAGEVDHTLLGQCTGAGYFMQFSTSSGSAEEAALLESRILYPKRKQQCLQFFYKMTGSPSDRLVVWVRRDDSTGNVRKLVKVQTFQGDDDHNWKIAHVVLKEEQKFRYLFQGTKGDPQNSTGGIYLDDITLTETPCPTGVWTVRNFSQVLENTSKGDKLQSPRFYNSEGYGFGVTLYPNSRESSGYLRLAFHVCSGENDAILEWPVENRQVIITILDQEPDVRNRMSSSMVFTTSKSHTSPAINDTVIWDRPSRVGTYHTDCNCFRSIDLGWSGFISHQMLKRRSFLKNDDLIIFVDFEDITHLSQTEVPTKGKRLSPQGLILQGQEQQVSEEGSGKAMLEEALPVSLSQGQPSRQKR
# Protocol Summary: Meprin α LOPAC pilot screen
# Assay type: biochemical
# Reported Conditions: 18 μM; hit cutoff 25% inhibition
Property: meprin α LOPAC pilot screen outcome

INSERT INTO measurements (compound, measured_result) VALUES
  ('CC(=O)c1ccc(S(=O)(=O)NC(=O)NC2CCCCC2)cc1 [Acetohexamide]', 'selective hits'),
  ('O.c1cnc2c(c1)ccc1cccnc12 [1,10-phenanthroline monohydrate]', 'inactive'),
  ('CC(C)C[C@H](NC(=O)[C@H](O)[C@H](N)Cc1ccccc1)C(=O)O.Cl [epibestatin HCl]', 'inactive'),
  ('c1ccc(-c2ccccn2)nc1', 'inactive');

## Task I'd like to know its meprin α LOPAC pilot screen outcome. The compound in question is CCN(CC)CCNC(=O)c1ccc(NC(C)=O)cc1.Cl [N-Acetylprocainamide hydrochloride]
## Result selective hits

## Task I'd like to know its meprin α LOPAC pilot screen outcome. The compound in question is O=C(O)[C@@H]1C[C@H](C(=O)O)N1 [cis-Azetidine-2,4-dicarboxylic acid]
## Result selective hits

## Task I'd like to know its meprin α LOPAC pilot screen outcome. The compound in question is `O=P(O)(O)C(Cl)(Cl)P(=O)(O)O`
## Result inactive

====

# Target Entity: UniProtKB Q16820
# Protocol Summary: Meprin β LOPAC pilot screen
# Type: biochemical
# Reported Conditions: 18 μM; hit cutoff 25% inhibition
Property: meprin β LOPAC pilot screen outcome

Please review the following examples before continuing.
INSERT INTO assay_data (compound, target_entity, property, measured_result) VALUES
  ('O=C(Nc1cc(C(=O)Nc2ccc(S(=O)(=O)O)cc2S(=O)(=O)O)cc(C(=O)Nc2ccc(S(=O)(=O)O)cc2S(=O)(=O)O)c1)Nc1cc(C(=O)Nc2ccc(S(=O)(=O)O)cc2S(=O)(=O)O)cc(C(=O)Nc2ccc(S(=O)(=O)O)cc2S(=O)(=O)O)c1', 'UniProtKB Q16820', 'meprin β LOPAC pilot screen outcome', 'selective hits'),
  ('N.N.[Cl][Pt][Cl] [Cisplatin, cisplatin]', 'UniProtKB Q16820', 'meprin β LOPAC pilot screen outcome', 'selective hits'),
  ('N.N.O=C([O-])C1(C(=O)[O-])CCC1.[Pt+2]', 'UniProtKB Q16820', 'meprin β LOPAC pilot screen outcome', 'selective hits'),
  ('CC(C)C[C@H](NC(=O)[C@H](O)[C@H](N)Cc1ccccc1)C(=O)O.Cl [epibestatin HCl]', 'UniProtKB Q16820', 'meprin β LOPAC pilot screen outcome', 'inactive'),
  ('Cc1nc(N=Nc2cc(S(=O)(=O)[O-])c3cc([N+](=O)[O-])cc(S(=O)(=O)[O-])c3c2)c(COP(=O)([O-])[O-])c(C=O)c1O.[Na+].[Na+].[Na+].[Na+]', 'UniProtKB Q16820', 'meprin β LOPAC pilot screen outcome', 'selective hits');

## Task I'd like to know its meprin β LOPAC pilot screen outcome. The compound in question is O.c1cnc2c(c1)ccc1cccnc12 [1,10-phenanthroline monohydrate]
## Result inactive

## Task I'd like to know its meprin β LOPAC pilot screen outcome. The compound in question is `c1ccc(-c2ccccn2)nc1`
## Result inactive

## Task I'd like to know its meprin β LOPAC pilot screen outcome. The compound in question is `O=P(O)(O)C(Cl)(Cl)P(=O)(O)O`
## Result inactive

====

The entries below come with measured pIC50 values attached.
# Target Entity: MMP-14 (Homo sapiens, UniProt P50281)
pIC50 here: minus log base 10 of the concentration, concentration in moles per litre.

INSERT INTO results (compound, measured_result) VALUES
  ('O=C(Nc1cc(C(=O)Nc2ccc(S(=O)(=O)O)cc2S(=O)(=O)O)cc(C(=O)Nc2ccc(S(=O)(=O)O)cc2S(=O)(=O)O)c1)Nc1cc(C(=O)Nc2ccc(S(=O)(=O)O)cc2S(=O)(=O)O)cc(C(=O)Nc2ccc(S(=O)(=O)O)cc2S(=O)(=O)O)c1 [NF449]', 4.74);

Turning now to a further compound:
## Task I'd like to know its pIC50. The compound in question is Cc1nc(N=Nc2cc(S(=O)(=O)[O-])c3cc([N+](=O)[O-])cc(S(=O)(=O)[O-])c3c2)c(COP(=O)([O-])[O-])c(C=O)c1O.[Na+].[Na+].[Na+].[Na+] [PPNDS]
## Result 4.14

====

Recorded pIC50 values (MMP-13 (Homo sapiens)) are given below.
pIC50 here: minus log base 10 of the concentration, concentration in moles per litre.

## Task Test system MMP-13 (Homo sapiens); read-out pIC50; what value for O=C(Nc1cc(C(=O)Nc2ccc(S(=O)(=O)O)cc2S(=O)(=O)O)cc(C(=O)Nc2ccc(S(=O)(=O)O)cc2S(=O)(=O)O)c1)Nc1cc(C(=O)Nc2ccc(S(=O)(=O)O)cc2S(=O)(=O)O)cc(C(=O)Nc2ccc(S(=O)(=O)O)cc2S(=O)(=O)O)c1 [NF449] ?
## Result 4.40

## Task Test system MMP-13 (Homo sapiens); read-out pIC50; what value for Cc1nc(N=Nc2cc(S(=O)(=O)[O-])c3cc([N+](=O)[O-])cc(S(=O)(=O)[O-])c3c2)c(COP(=O)([O-])[O-])c(C=O)c1O.[Na+].[Na+].[Na+].[Na+] [PPNDS] ?
## Result 4.16

====

# Target Entity: meprin β (Homo sapiens)
# Sequence (Q16820 62-614 limits assumed): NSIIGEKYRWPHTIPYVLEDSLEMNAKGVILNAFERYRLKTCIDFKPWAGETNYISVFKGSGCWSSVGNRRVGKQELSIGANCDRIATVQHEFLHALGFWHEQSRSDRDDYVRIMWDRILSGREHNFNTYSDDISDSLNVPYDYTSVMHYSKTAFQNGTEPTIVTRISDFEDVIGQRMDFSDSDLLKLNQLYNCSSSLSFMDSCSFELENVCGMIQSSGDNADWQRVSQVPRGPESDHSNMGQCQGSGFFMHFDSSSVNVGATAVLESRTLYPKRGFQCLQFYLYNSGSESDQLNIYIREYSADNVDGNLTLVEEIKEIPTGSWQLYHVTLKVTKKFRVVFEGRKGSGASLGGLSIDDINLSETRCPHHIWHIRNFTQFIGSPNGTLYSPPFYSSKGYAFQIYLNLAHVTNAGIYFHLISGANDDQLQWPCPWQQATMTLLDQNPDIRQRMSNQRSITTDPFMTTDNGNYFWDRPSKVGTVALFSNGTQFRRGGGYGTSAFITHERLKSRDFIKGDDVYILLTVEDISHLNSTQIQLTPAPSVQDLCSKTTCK
The entries below come with measured pKi values attached.
pKi here: minus log base 10 of the concentration, concentration in moles per litre.

INSERT INTO measurements (chem_smiles, measured_result) VALUES
  ('O=C(Nc1cc(C(=O)Nc2ccc(S(=O)(=O)O)cc2S(=O)(=O)O)cc(C(=O)Nc2ccc(S(=O)(=O)O)cc2S(=O)(=O)O)c1)Nc1cc(C(=O)Nc2ccc(S(=O)(=O)O)cc2S(=O)(=O)O)cc(C(=O)Nc2ccc(S(=O)(=O)O)cc2S(=O)(=O)O)c1', 7.66);

Turning now to a further compound:
## Task I'd like to know its pKi. The compound in question is `Cc1nc(N=Nc2cc(S(=O)(=O)[O-])c3cc([N+](=O)[O-])cc(S(=O)(=O)[O-])c3c2)c(COP(=O)([O-])[O-])c(C=O)c1O.[Na+].[Na+].[Na+].[Na+]`
## Result 8.10

====

# Target Entity: MMP-1 (Homo sapiens)
# Sequence (P03956 100-469): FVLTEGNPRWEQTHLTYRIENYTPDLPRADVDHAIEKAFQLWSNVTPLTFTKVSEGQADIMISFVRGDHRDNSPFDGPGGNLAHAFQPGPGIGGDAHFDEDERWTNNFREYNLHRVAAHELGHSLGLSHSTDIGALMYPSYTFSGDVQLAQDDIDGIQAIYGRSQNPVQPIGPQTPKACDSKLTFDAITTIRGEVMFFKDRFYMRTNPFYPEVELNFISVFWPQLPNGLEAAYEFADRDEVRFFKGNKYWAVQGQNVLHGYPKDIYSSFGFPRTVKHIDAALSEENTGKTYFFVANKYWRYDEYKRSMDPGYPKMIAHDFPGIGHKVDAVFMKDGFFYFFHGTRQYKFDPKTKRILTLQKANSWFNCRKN
Property: pIC50
pIC50 here: minus log base 10 of the concentration, concentration in moles per litre.

## Task I'd like to know its pIC50. The compound in question is N.N.[Cl][Pt][Cl] [Cisplatin, cisplatin]
## Result 5.29
